Below, each of the molecules is paired with its reported IC50 value.
- tgt: ERK2 enzyme (Homo sapiens (Human), UniProt P28482)
- Sequence (P28482 whole entry): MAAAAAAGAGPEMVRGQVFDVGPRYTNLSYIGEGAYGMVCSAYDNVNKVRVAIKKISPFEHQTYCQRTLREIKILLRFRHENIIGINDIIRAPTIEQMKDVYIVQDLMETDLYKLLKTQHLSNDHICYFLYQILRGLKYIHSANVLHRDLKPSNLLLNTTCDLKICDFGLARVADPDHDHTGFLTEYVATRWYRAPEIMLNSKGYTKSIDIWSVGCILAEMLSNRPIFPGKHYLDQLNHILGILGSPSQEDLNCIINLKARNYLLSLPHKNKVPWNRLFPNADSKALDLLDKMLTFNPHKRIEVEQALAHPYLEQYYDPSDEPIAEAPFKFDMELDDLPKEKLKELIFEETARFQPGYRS
- assay_name: Inhibition assay of ERK (Z'-LYTE kinase assay, Ser/Thr 3 peptide substrate)
- Format: biochemical
- details: In vitro ERK2 enzyme, 100 μM ATP

Solved cases (3 shown):
molecule="Cc1cc(-c2n[nH]c3cc4c(cc23)CN([C@@H]2CCCN(CC3CC5CCC3C5)C2)C(=O)N4)ccn1 (some centres unmarked)" experimental_value="< 50 nM"
molecule=Cc1cc(-c2n[nH]c3cc4c(cc23)CN([C@@H]2CCCOC2)C(=O)N4)ccn1 experimental_value="< 50 nM"
molecule=Cc1cc(-c2n[nH]c3cc4c(cc23)CN(C2(c3ccc(F)cc3)CC2)C(=O)N4)ccn1 experimental_value="50 to 250 nM"

Ask: Give recorded IC50. Cc1cc(-c2n[nH]c3cc4c(cc23)CN(Cc2ccc(C#N)cc2)C(=O)N4)ccn1
Reply: < 50 nM

Ask: Supply IC50 value. Item: Cc1cc(-c2n[nH]c3cc4c(cc23)CN(CCNCc2ccc(F)c(Cl)c2)C(=O)N4)ccn1
Reply: < 50 nM

Ask: Report measured IC50; entry is Cc1cc(-c2n[nH]c3cc4c(cc23)CN([C@@H]2CCCN(Cc3ccc(F)cc3)C2)C(=O)N4)ccn1
Reply: < 50 nM

Ask: Return IC50 for the following molecule: Cc1cc(-c2n[nH]c3cc4[nH]c(=O)c(C(C)c5ccccc5)cc4cc23)ccn1 (centres unmarked)
Reply: < 50 nM

Ask: Supply measured IC50 of COc1cccc(F)c1CN1CCC[C@@H](N2Cc3cc4c(-c5ccnc(C)c5)n[nH]c4cc3NC2=O)C1 in your reply.
Reply: < 50 nM

Ask: Indicate its recorded IC50; the molecule in question is O=C1Nc2cc3[nH]nc(-c4ccnnc4)c3cc2CN1Cc1ccc(F)cc1F
Reply: < 50 nM

Ask: Please give the documented IC50 of COc1ncccc1CN1Cc2cc3c(-c4ccnc(C)c4)n[nH]c3cc2NC1=O
Reply: < 50 nM

Ask: Item COc1cc(-c2n[nH]c3cc4c(cc23)CN(Cc2ccc(F)c(Cl)c2)C(=O)N4)ccn1 : provide IC50
Reply: < 50 nM

Ask: Give me measured IC50, please, for this molecule: Cc1cc(-c2n[nH]c3cc4c(cc23)CN([C@@H]2CCCN(Cc3cc(C5CC5)on3)C2)C(=O)N4)ccn1
Reply: < 50 nM

Ask: For COc1ncc(-c2n[nH]c3cc4c(cc23)CN(Cc2ccc(F)c(Cl)c2)C(=O)N4)cn1 , write its IC50.
Reply: < 50 nM

Ask: Input CCC(=O)NCCCN1Cc2cc3c(-c4cnc(OC)nc4)n[nH]c3cc2NC1=O , output reported IC50.
Reply: < 50 nM

Ask: Tell me IC50 reported for Cc1cc(-c2n[nH]c3cc4c(cc23)CN(CCN2CCOCC2)C(=O)N4)ccn1
Reply: < 50 nM

Ask: // Input: O=C1Nc2cc3[nH]nc(-c4ccnnc4)c3cc2CN1[C@H](CO)c1cccc(Cl)c1 . Output its IC50 only.
Reply: < 50 nM

Ask: Fill in reported IC50 for this entry: Cc1cc(-c2n[nH]c3cc4c(cc23)CN([C@@H]2CCCN(CCC(C)(C)C)C2)C(=O)N4)ccn1
Reply: 50 to 250 nM

Ask: Please indicate IC50 recorded for Cc1cc(-c2n[nH]c3cc4c(cc23)CN([C@@H]2CCCN(Cc3ccccc3Cl)C2)C(=O)N4)ccn1
Reply: < 50 nM

Ask: # return recorded IC50 for input Cc1cc(-c2n[nH]c3cc4c(cc23)CN([C@@H]2CCCN(Cc3cccc(F)c3F)C2)C(=O)N4)ccn1
Reply: < 50 nM
